pIC50: −log10 of the molar value.
Ok so here's the combined literature set: pIC50 for Rho-associated protein kinase 1 (Homo sapiens, UniProt Q13464).

Solved entries:
{"MOLECULE": "COc1ccc2c(c1)CN(c1nc3c(c(Nc4ccc5[nH]ncc5c4)n1)COCC3)C2", "pIC50": "< 5.00"}
{"MOLECULE": "CC(O)C(=O)N1Cc2ccc(-c3nccc(Nc4ccc(-c5cn[nH]c5)cc4)n3)cc2C1 (centres unmarked)", "pIC50": "< 5.00"}
{"MOLECULE": "Cn1cc(-c2nnc(Nc3ccc4[nH]ncc4c3Cl)o2)cc(NC(=O)c2ccccc2F)c1=O", "pIC50": "> 6.52"}
{"MOLECULE": "COc1cc(F)cc(C(CN(C)C)NC(=O)N2CCc3cc(-c4c[nH]nc4F)c(F)cc32)c1 (racemic)", "pIC50": "6.30 to 7.30"}

stdin: GET /values?readout=pIC50&item= `COc1cnc(-c2ccc3cc(C(=O)N4CC(F)(F)C4)n(C)c3c2)nc1Nc1ccc(-c2cn[nH]c2)cc1`
stdout: < 5.00

stdin: If you can, please state the reported pIC50 value of `Cn1cc(C(=O)Nc2cccc(-c3nc(Nc4ccc5[nH]ncc5c4Cl)no3)c2)cn1` .
stdout: > 6.52

stdin: Give its pIC50 value. Item: `COc1cccc([C@@H](C)NC(=O)c2ccc(-c3c(C)n[nH]c3C)c(C)c2)c1`
stdout: < 5.70

stdin: Which pIC50 value belongs to `Cc1cncc2cccc(S(=O)(=O)N3CC[C@H](NCc4ccc([N+](=O)[O-])cc4)C3)c12` ?
stdout: 5.52 to 6.00

---

What follows is literature data on IC50 for Rho-associated protein kinase 1 (Homo sapiens).

A selection of reference data follows.
{"MOLECULE": "CC(C)NC(=O)COc1cccc(-c2nc(Nc3ccc4[nH]ncc4c3)cc(C(F)(F)F)n2)c1", "IC50": "> 10 µM"}
{"MOLECULE": "CN(C)Cc1cc(F)cc(CNC(=O)c2ncn3cc(-c4cn[nH]c4)ccc23)c1", "IC50": "0.5 to 5 µM"}
{"MOLECULE": "CC(N)c1cccc(-c2nccc(Nc3ccc4[nH]ncc4c3)n2)c1 (stereo not drawn)", "IC50": "> 2 µM"}
{"MOLECULE": "Cn1c(C(=O)N2CC(F)(F)C2)cc2ccc(-c3nccc(Nc4ccc5[nH]ncc5c4)n3)cc21", "IC50": "> 10 µM"}

stdin: Which measured IC50 value corresponds to `CN(C)C(=O)N1Cc2ccc(-c3nc(Nc4ccc(-c5cn[nH]c5)cc4)c4occc4n3)cc2C1` ?
stdout: > 10 µM

stdin: So what does the record say about IC50 for `CC(C)NC(=O)c1cc2ccc(-c3nc(Nc4ccc(-c5cn[nH]c5)cc4)c4sccc4n3)cc2s1` ?
stdout: > 10 µM

---

Study the reported IC50 values for Rho-associated protein kinase 1 (Homo sapiens) given below; they originate from different publications.

# annotated cases, reported IC50 shown
{"SMILES ENTRY": "COc1cc(-c2nc(Nc3ccc4[nH]ncc4c3Cl)no2)ccc1OCC(=O)NC(C)C", "IC50": "0.3 to 3 µM"}
{"SMILES ENTRY": "O=C(CCN1CCNCC1)N[C@H]1CCN(S(=O)(=O)c2cccc3cncc(Cl)c23)C1", "IC50": "1 to 3 µM"}
{"SMILES ENTRY": "Cn1cc(C(=O)Nc2cc(-n3nc(Nc4ccc5[nH]ncc5c4Cl)c4ccccc43)ccc2F)cn1", "IC50": "< 0.3 µM"}
{"SMILES ENTRY": "O=C(NCCCN1CCCC1)c1ccc(/C=C2\\Sc3ccccc3N(Cc3ccccc3F)C2=O)cc1", "IC50": "> 20 µM"}

stdin: Query for Rho-associated protein kinase 1 (Homo sapiens): what IC50 does the record show for `COc1cnc(N2CCc3cc(C(=O)N4CC(F)(F)C4)n(C)c3C2)nc1Nc1ccc(-c2cn[nH]c2)cc1` ?
stdout: > 4.5 µM

stdin: Under Rho-associated protein kinase 1 (Homo sapiens): IC50 value of `O=C(C1CC(F)(F)C1)N1Cc2ccc(-c3nccc(Nc4ccc5[nH]ncc5c4)n3)cc2C1` ?
stdout: > 10 µM
